# target or test system: RORγ (UniProt P51449)
# Construct: hRORg-LBD|aa259-518|NP_005051.2; hRORgt|aa1-497|NP_001001523 (RORg, t isoform, 497aa); mRORg-LBD|aa264-516|NP_035411
# Format: cell-based
# condition summary: firefly (FF) luciferase, 293T cells, 16 h

{"compound": "Cc1c(C(=O)NC2CCOCC2)cc(-c2ccc(S(=O)(=O)NC(C)(C)C)c(C(F)(F)F)c2)n1C1CCCCC1 [302/6]", "comparative sign": "=", "pIC50 (FF)": 6.5}
{"compound": "Cc1c(C(=O)NCCC(C)(C)C(=O)O)cn(-c2cc(C(C)(C)C)cc(C3(C)CC3)c2)c1CC1CCCCC1 [1/4]", "comparative sign": "=", "pIC50 (FF)": 7.2}
{"compound": "CC1(CNC(=O)c2nn(-c3cc(C(C)(C)C)nc(C(C)(C)C)c3)c(CC3CCCCC3)c2Cl)COC1 [Example 105]", "comparative sign": "<", "pIC50 (FF)": 4.7}
{"compound": "CC(C)(C)NS(=O)(=O)c1ccc(-c2c(Cl)c(C(=O)NC34CCC(C(=O)O)(CC3)CC4)nn2CC2CCCCC2)c(Cl)c1Cl [Example 113]", "comparative sign": "=", "pIC50 (FF)": 7.5}

----------
# target or test system: RORγ (UniProt P51449)
# Construct: hRORg-LBD|aa259-518|NP_005051.2; hRORgt|aa1-497|NP_001001523 (RORg, t isoform, 497aa); mRORg-LBD|aa264-516|NP_035411
# Assay type: cell-based
# condition summary: renilla normalised (RENnorm) luciferase, 293T cells, 16 h
The entries below are paired with their reported pIC50 (REN).

{"molecule": "CC(C)(C)c1cc(-n2nc(C(=O)NS(C)(=O)=O)cc2CC2CCCCC2)cc(C(C)(C)C)c1", "comparative sign": "<", "pIC50 (REN)": 4.7}
{"molecule": "Cn1c(CC2CCCCC2)c(-c2cc(C(C)(C)C)cc(C3(C)CC3)c2)c(Cl)c1C(=O)N[C@H]1C[C@H](C(=O)O)C1", "comparative sign": "=", "pIC50 (REN)": 7.3}
{"molecule": "CC(C)(C)c1cc(-c2cc(C(=O)N[C@H]3C[C@H](C(=O)O)C3)nn2CC2CCCCC2)cc(C2(C)CC2)c1", "comparative sign": "=", "pIC50 (REN)": 7.0}
{"molecule": "Cc1c(C(=O)NC2CCOCC2)cc(-c2ccc(S(=O)(=O)NC(C)(C)C)c(C(F)(F)F)c2)n1CC1CCOC1 (stereo not shown)", "comparative sign": "<", "pIC50 (REN)": 4.7}
{"molecule": "Cc1c(C(=O)NC2CCOCC2)cc(-c2ccc(S(=O)(=O)NC(C)(C)C)c(C(F)(F)F)c2)n1C1CCCCC1", "comparative sign": "=", "pIC50 (REN)": 6.7}
{"molecule": "Cn1c(C(=O)O)cc(-c2ccc(S(=O)(=O)NC(C)(C)C)c3ccccc23)c1CC1CCCCC1", "comparative sign": "=", "pIC50 (REN)": 6.9}
{"molecule": "Cc1c(C(=O)NC2CCS(=O)(=O)CC2)nc(-c2ccc(S(=O)(=O)NC(C)(C)C)c3ccccc23)n1CC1CCCCC1", "comparative sign": "=", "pIC50 (REN)": 6.0}

----------
# target or test system: RORγ ligand binding domain (LBD) (Homo sapiens, UniProt P51449)
# Construct: made in house; host or cells: E. coli BL-21 (BL3), vector pDEST15
# test details: TR-FRET Activity Assay (ligand sensing assay, RORγ-LBD / coactivator peptide interaction)
# Format: biochemical
# Experimental: This method measures the ability of putative ligands to modulate the interaction between the purified bacterial expressed RORγ ligand binding domain (LBD) and synthetic N-terminally biotinylated peptides which are derived from nuclear receptor coactivator proteins such as but not limited to SRC1 (NcoA1), SRC2 (NcoA2, TIF2), SRC3 (NcoA3), PGC1α, PGC1β, CBP, GRIP1, TRAP220, RIP140. […] This is identical to the “four parameter logistic equation”. The IC50 values are calculated using this equation. […]

{"compound structure string": "Cc1cc(-n2nc(C(N)=O)cc2CC2CCCCC2)cc(C(C)(C)C)c1", "display unit": "nM", "IC50": 7940}
{"compound structure string": "CC(C)(O)CNC(=O)c1nc(-c2cc(C(C)(C)C)c(O)c(C(C)(C)C)c2)n(CC2CCCCC2)n1", "display unit": "nM", "IC50": 1000}
{"compound structure string": "CC(C)(C)c1cc(-n2nc(C(=O)NCc3ccno3)c(Cl)c2CC2CCCCC2)cc(C(C)(C)C)c1", "display unit": "nM", "IC50": 631}
{"compound structure string": "CC(C)(C)NS(=O)(=O)c1ccc(-c2cc(C(=O)N[C@H]3C[C@H](C(=O)O)C3)nn2CC2CCCCC2)c(Cl)c1Cl", "display unit": "nM", "IC50": 316}

----------
# target or test system: RORγ ligand binding domain (LBD) (Homo sapiens)
# Sequence (P51449 269-508 limits assumed): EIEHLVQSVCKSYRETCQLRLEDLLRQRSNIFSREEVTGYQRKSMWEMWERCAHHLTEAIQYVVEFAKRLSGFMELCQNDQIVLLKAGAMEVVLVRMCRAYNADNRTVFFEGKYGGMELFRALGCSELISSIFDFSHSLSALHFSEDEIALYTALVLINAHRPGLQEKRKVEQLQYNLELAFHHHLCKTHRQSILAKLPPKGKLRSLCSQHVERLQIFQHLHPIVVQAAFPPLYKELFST
# test details: TR-FRET Activity Assay (ligand sensing assay, RORγ-LBD / coactivator peptide interaction)
Rule for this label: Satisfied means IC50 is less than 1000 nM; Not satisfied means IC50 is at least 1000 nM.

{"compound structure string": "CC(=O)NS(=O)(=O)c1nc(-c2cc(C(C)(C)C)cc(C(C)(C)C)c2)n(CC2CCCCC2)n1", "class name": "Not satisfied"}
{"compound structure string": "CC(C)(C)c1cc(-c2nc(C(=O)NC3COC3)nn2CC2CCCCC2)cc(C(C)(C)C)c1O", "class name": "Satisfied"}
{"compound structure string": "Cn1c(C(=O)NC23CCC(C(=O)O)(CC2)CC3)cc(-c2cc(C(C)(C)C)cc(C3(C)CC3)c2)c1CC1CCCCC1", "class name": "Not satisfied"}
{"compound structure string": "CC(C)(C)c1cc(-n2nc(C(=O)NC3CCOCC3)c(Cl)c2CC2CCCCC2)cc(C(C)(C)C)c1", "class name": "Satisfied"}
{"compound structure string": "Cc1c(C(=O)NC2CCOCC2)cc(-c2ccc(S(=O)(=O)NC(C)(C)C)c(C(C)(C)C)c2)n1CC(C)(C)C", "class name": "Not satisfied"}
{"compound structure string": "Cc1c(C(=O)NC2CCOCC2)cn(-c2ccc(S(=O)(=O)NC(C)(C)C)c(C(C)(C)C)c2)c1CC1CCCCC1", "class name": "Satisfied"}
{"compound structure string": "Cc1c(C(=O)NC2CCOCC2)cn(-c2ccc(S(=O)(=O)NC(C)(C)C)c(C(F)(F)F)c2)c1CC1CCCCC1", "class name": "Satisfied"}
{"compound structure string": "Cc1c(C(=O)N[C@H]2C[C@H](C(=O)O)C2)c(C)n(-c2cc(C(C)(C)O)cc(C3(C)CC3)c2)c1CC1CCCCC1", "class name": "Not satisfied"}
{"compound structure string": "CC(C)(C)NS(=O)(=O)c1ccc(-c2c(Cl)c(C(=O)N[C@H]3C[C@H](C(=O)O)C3)nn2CC2CCCCC2)cc1C(F)(F)F", "class name": "Satisfied"}
{"compound structure string": "Cc1c(C(=O)NC2CCOCC2)cc(-c2ccc(S(=O)(=O)NC(C)(C)C)c(C(F)(F)F)c2)n1CC(C)(C)C", "class name": "Not satisfied"}
{"compound structure string": "Cn1c(C(=O)NCC(C)(C)C(=O)O)cc(-c2cc(C(C)(C)C)cc(C3(C)CC3)c2)c1CC1CCCCC1", "class name": "Not satisfied"}
{"compound structure string": "Cn1c(C(=O)NCCC(C)(C)C(=O)O)cc(-c2ccc(S(=O)(=O)NC(C)(C)C)c(C(C)(C)C)c2)c1CC1CCCCC1", "class name": "Not satisfied"}
{"compound structure string": "Cn1c(C(=O)O)cc(-c2ccc(S(=O)(=O)NC(C)(C)C)c3ccccc23)c1CC1CCCCC1", "class name": "Not satisfied"}
